Tested on: Bacteroides fragilis 1936B
MEASUREMENT PROTOCOL: standard agar-dilution test, anaerobic bacteria
Format: cell-based
EXPERIMENTAL PARAMETERS: Bacteroides fragilis 1936B; 24-hour incubation; read-out: MIC
MEASURE NAME: MIC (µg/mL)

# CHEMICAL STRING, MEASURE NAME, VALUE OBSERVED
measured = [
    ("C=C[C@]1(C)C[C@@H](OC(=O)CS[C@@H]2OC[C@@H](O)[C@H](O)[C@H]2O)[C@]2(C)[C@H](C)CC[C@]3(CCC(=O)[C@H]32)[C@@H](C)[C@@H]1O", "MIC", 1),
    ("CC[C@]1(C)C[C@@H](OC(=O)CS[C@@H]2O[C@H](CO)[C@@H](O)[C@H](O)[C@H]2O)[C@]2(C)[C@H](C)CC[C@]3(CCC(=O)[C@H]32)[C@@H](C)[C@@H]1O", "MIC", 128),
    ("CC[C@]1(C)C[C@@H](OC(=O)CS[C@@H]2O[C@H](COC(C)=O)[C@@H](OC(C)=O)[C@H](OC(C)=O)[C@H]2OC(C)=O)[C@]2(C)[C@H](C)CC[C@]3(CCC(=O)[C@H]32)[C@@H](C)[C@@H]1O", "MIC", 64),
]

###

Test system: Mycoplasma hyorhinis
MEASUREMENT PROTOCOL: in vitro broth-dilution studies, mycoplasma
Format: cell-based
MEASURE NAME: MIC (µg/mL)

# CHEMICAL STRING, SYSTEM UNDER TEST, MEASURE NAME, RELATION QUALIFIER, VALUE OBSERVED
data = [
    ("C=C[C@]1(C)C[C@@H](OC(=O)CS[C@@H]2OC[C@@H](O)[C@H](O)[C@H]2O)[C@]2(C)[C@H](C)CC[C@]3(CCC(=O)[C@H]32)[C@@H](C)[C@@H]1O", "Mycoplasma hyorhinis", "MIC", "=", 0.39),
    ("CC[C@]1(C)C[C@@H](OC(=O)CO[C@H]2O[C@H](COC(C)=O)[C@@H](OC(C)=O)[C@H](OC(C)=O)C2=NO)[C@]2(C)[C@H](C)CC[C@]3(CCC(=O)[C@H]32)[C@@H](C)[C@@H]1O", "Mycoplasma hyorhinis", "MIC", "=", 6.25),
    ("C=C[C@]1(C)C[C@@H](OC(=O)CS[C@@H]2O[C@H](COC(C)=O)[C@@H](OC(C)=O)[C@H](OC(C)=O)[C@H]2OC(C)=O)[C@]2(C)[C@H](C)CC[C@]3(CCC(=O)[C@H]32)[C@@H](C)[C@@H]1O", "Mycoplasma hyorhinis", "MIC", ">", 0.78),
    ("C=C[C@]1(C)C[C@@H](OC(=O)CO[C@H]2O[C@H](COC(C)=O)[C@H](OC(C)=O)[C@H](OC(C)=O)C2=NO)[C@]2(C)[C@H](C)CC[C@]3(CCC(=O)[C@H]32)[C@@H](C)[C@@H]1O", "Mycoplasma hyorhinis", "MIC", "=", 1.56),
    ("C=C[C@]1(C)C[C@@H](OC(=O)CO[C@H]2O[C@H](COC(C)=O)[C@@H](OC(C)=O)[C@H](OC(C)=O)C2=NO)[C@]2(C)[C@H](C)CC[C@]3(CCC(=O)[C@H]32)[C@@H](C)[C@@H]1O", "Mycoplasma hyorhinis", "MIC", "=", 0.78),
]

###

Test system: Peptococcus prevoti
MEASUREMENT PROTOCOL: standard agar-dilution test, anaerobic bacteria
Type: cell-based
EXPERIMENTAL PARAMETERS: Peptococcus prevoti; 24-hour incubation; read-out: MIC
MEASURE NAME: MIC

# CHEMICAL STRING, VALUE OBSERVED
data = [
    ("CC[C@]1(C)C[C@@H](OC(=O)CS[C@@H]2OC[C@@H](O)[C@H](O)[C@H]2O)[C@]2(C)[C@H](C)CC[C@]3(CCC(=O)[C@H]32)[C@@H](C)[C@@H]1O", "≤ 0.125 µg/mL"),
    ("C=C[C@]1(C)C[C@@H](OC(=O)CS[C@@H]2OC[C@@H](OC(C)=O)[C@H](OC(C)=O)[C@H]2OC(C)=O)[C@]2(C)[C@H](C)CC[C@]3(CCC(=O)[C@H]32)[C@@H](C)[C@@H]1O", "≤ 0.5 µg/mL"),
    ("CC[C@]1(C)C[C@@H](OC(=O)CS[C@@H]2OC[C@@H](OC(C)=O)[C@H](OC(C)=O)[C@H]2OC(C)=O)[C@]2(C)[C@H](C)CC[C@]3(CCC(=O)[C@H]32)[C@@H](C)[C@@H]1O", "2 µg/mL"),
]

###

System: Staphylococcus aureus (H-Heatley) NRRL B-314
MEASUREMENT PROTOCOL: in vitro turbidometric assay (Autoturb Microbiological Assay System) against Staphylococcus aureus
Type: cell-based
EXPERIMENTAL PARAMETERS: nutrient broth pH 7, approximately 4 hours at 37° C., A-40104 factor A as standard

# CHEMICAL STRING, Units of Activity (µg/mg)
rows = [
    ("CC[C@]1(C)C[C@@H](OC(=O)CS[C@@H]2O[C@H](COC(C)=O)[C@@H](O[C@H]3O[C@H](COC(C)=O)[C@@H](OC(C)=O)[C@H](OC(C)=O)[C@H]3OC(C)=O)[C@H](OC(C)=O)[C@H]2OC(C)=O)[C@]2(C)[C@H](C)CC[C@]3(CCC(=O)[C@H]32)[C@@H](C)[C@@H]1O", 28),
    ("CC[C@]1(C)C[C@@H](OC(=O)CS[C@@H]2OC[C@@H](O)[C@@H](O)[C@@H]2O)[C@]2(C)[C@H](C)CC[C@]3(CCC(=O)[C@H]32)[C@@H](C)[C@@H]1O", 420),
    ("CC[C@]1(C)C[C@@H](OC(=O)CS[C@@H]2OC[C@@H](OC(C)=O)[C@@H](OC(C)=O)[C@@H]2OC(C)=O)[C@]2(C)[C@H](C)CC[C@]3(CCC(=O)[C@H]32)[C@@H](C)[C@@H]1O", 380),
]

###

System: Peptococcus prevoti
MEASUREMENT PROTOCOL: standard agar-dilution test, anaerobic bacteria
Format: cell-based
EXPERIMENTAL PARAMETERS: Peptococcus prevoti; 24-hour incubation; read-out: MIC
Listing: MIC of selected molecules
MEASURE NAME: MIC (µg/mL)

# CHEMICAL STRING, MEASURE NAME, RELATION QUALIFIER, VALUE OBSERVED
rows = [
    ("C=C[C@]1(C)C[C@@H](OC(=O)CS[C@@H]2O[C@H](CO)[C@@H](O)[C@H](O)[C@H]2O)[C@]2(C)[C@H](C)CC[C@]3(CCC(=O)[C@H]32)[C@@H](C)[C@@H]1O", "MIC", "=", 16),
    ("C=C[C@]1(C)C[C@@H](OC(=O)CS[C@@H]2OC[C@@H](O)[C@H](O)[C@H]2O)[C@]2(C)[C@H](C)CC[C@]3(CCC(=O)[C@H]32)[C@@H](C)[C@@H]1O", "MIC", "≤", 0.5),
    ("C=C[C@]1(C)C[C@@H](OC(=O)CO[C@H]2O[C@H](COC(C)=O)[C@H](OC(C)=O)[C@H](OC(C)=O)C2=NO)[C@]2(C)[C@H](C)CC[C@]3(CCC(=O)[C@H]32)[C@@H](C)[C@@H]1O", "MIC", "=", 16),
    ("CC[C@]1(C)C[C@@H](OC(=O)CS[C@@H]2O[C@H](COC(C)=O)[C@@H](OC(C)=O)[C@H](OC(C)=O)[C@H]2OC(C)=O)[C@]2(C)[C@H](C)CC[C@]3(CCC(=O)[C@H]32)[C@@H](C)[C@@H]1O", "MIC", "=", 8),
]

###

Below, each entry is listed alongside its reported MIC.
System: Bacteroides fragilis 1877
MEASUREMENT PROTOCOL: standard agar-dilution test, anaerobic bacteria
Assay type: cell-based
EXPERIMENTAL PARAMETERS: Bacteroides fragilis 1877; 24-hour incubation; read-out: MIC
MEASURE NAME: MIC (mg/L)

# CHEMICAL STRING, VALUE OBSERVED
rows = [
    ("CC[C@]1(C)C[C@@H](OC(=O)CS[C@@H]2O[C@H](COC(C)=O)[C@@H](OC(C)=O)[C@H](OC(C)=O)[C@H]2OC(C)=O)[C@]2(C)[C@H](C)CC[C@]3(CCC(=O)[C@H]32)[C@@H](C)[C@@H]1O", 32),
    ("C=C[C@]1(C)C[C@@H](OC(=O)CS[C@@H]2OC[C@@H](OC(C)=O)[C@H](OC(C)=O)[C@H]2OC(C)=O)[C@]2(C)[C@H](C)CC[C@]3(CCC(=O)[C@H]32)[C@@H](C)[C@@H]1O", 4),
    ("CC[C@]1(C)C[C@@H](OC(=O)CS[C@@H]2OC[C@@H](O)[C@H](O)[C@H]2O)[C@]2(C)[C@H](C)CC[C@]3(CCC(=O)[C@H]32)[C@@H](C)[C@@H]1O", 1),
    ("C=C[C@]1(C)C[C@@H](OC(=O)CS[C@@H]2OC[C@@H](O)[C@H](O)[C@H]2O)[C@]2(C)[C@H](C)CC[C@]3(CCC(=O)[C@H]32)[C@@H](C)[C@@H]1O", 1),
    ("CC[C@]1(C)C[C@@H](OC(=O)CS[C@@H]2OC[C@@H](OC(C)=O)[C@H](OC(C)=O)[C@H]2OC(C)=O)[C@]2(C)[C@H](C)CC[C@]3(CCC(=O)[C@H]32)[C@@H](C)[C@@H]1O", 2),
]

Origin of values: patent US4130709A
